Collected Emax values appear next to each entry.
# test target: PTH-1 receptor (Homo sapiens, UniProt Q03431)
# Sequence (Q03431 27-593): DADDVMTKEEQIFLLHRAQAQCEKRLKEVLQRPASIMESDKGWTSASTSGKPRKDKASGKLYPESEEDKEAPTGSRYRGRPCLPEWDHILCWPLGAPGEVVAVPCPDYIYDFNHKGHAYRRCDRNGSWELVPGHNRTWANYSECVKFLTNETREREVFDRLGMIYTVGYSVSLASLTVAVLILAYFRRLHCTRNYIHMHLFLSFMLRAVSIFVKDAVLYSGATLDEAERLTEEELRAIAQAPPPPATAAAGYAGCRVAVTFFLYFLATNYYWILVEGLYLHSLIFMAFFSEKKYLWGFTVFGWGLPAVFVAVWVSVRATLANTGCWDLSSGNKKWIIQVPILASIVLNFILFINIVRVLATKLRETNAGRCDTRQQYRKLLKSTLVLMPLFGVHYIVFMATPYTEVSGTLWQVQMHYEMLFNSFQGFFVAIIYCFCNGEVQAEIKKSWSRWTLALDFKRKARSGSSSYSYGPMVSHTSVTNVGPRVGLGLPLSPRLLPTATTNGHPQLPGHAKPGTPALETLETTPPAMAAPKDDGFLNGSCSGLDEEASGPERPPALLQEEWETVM
# assay name: cAMP stimulation in HKRK-B7 cells (LLC-PK1 stably transfected with hPTH-1 receptor)
# Format: cell-based
# Set-up: expressed in transfected cells; host or cells: LLC-PK1 porcine kidney cells, clone HKRK-B7
# reported conditions: HKRK-B7 cells; Emax constrained to ±1 SD of rPTH(1-34) response at 100 nM
# Protocol: Stably transfected derivatives of the porcine kidney cell line LLC-PK1, HKRK-B7 (Takasu, H., et al., J. Bone Miner. Res. 14:11-20 (1999)) and hPR2-20, express the human PTH-1 and human PTH-2 receptors respectively. […] Stimulation of cells with peptide analogs was performed in 24-well plates. […] The cAMP content of the diluted lysate was determined by radioimmunoassay. Where possible, cAMP EC50 and Maximum response values were determined using nonlinear regression (see below). […]
No end group written: not given here.
Reply with the number and its unit after it.

| substance | recorded measurement |
| --- | --- |
| AVAEIQLMHARAKH-NH2 [Peptide #1] | 264 ± 16 picomole/well |
| AVAEIQLMHARA-NH2 [compound 5] | 238 ± 9 picomole/well |
| AVSEIQLMHNLGKH-NH2 [native rPTH(1-14), AVSEIQLMHNLGKH, reference compound] | 299 ± 27 picomole/well |

Tested on PTH-1 receptor (Homo sapiens, UniProt Q03431), the item AVAEIQLMHARAK-NH2 [compound 4] showed Emax equal to 239 ± 7 picomole/well

Tested on PTH-1 receptor (Homo sapiens, UniProt Q03431), the item AVAEIQLMHARAKHLNSMERVEWLRKKLQDVHNY-NH2 [Peptide #7] showed Emax equal to 244 picomole/well

Tested on PTH-1 receptor (Homo sapiens, UniProt Q03431), the item AVAEIQLMHAR-NH2 [compound 6, AlaValAlaGluIleGlnLeuMetHisAlaArg-amide] showed Emax equal to 248 ± 13 picomole/well

Tested on PTH-1 receptor (Homo sapiens, UniProt Q03431), the item AVAEIQLMHARAKW-NH2 [Peptide #2] showed Emax equal to 262 ± 9 picomole/well

Tested on PTH-1 receptor (Homo sapiens, UniProt Q03431), the item AVAEIQLMHQRAKH-NH2 [compound 3] showed Emax equal to 235 ± 3 picomole/well

----------
# test target: hPTH-2 Receptor (Homo sapiens)
# Construct: expressed in transfected cells; host or cells: LLC-PK1 porcine kidney cells (clone given as hPR2-20, hPR2-22, LLC-P2R-22 or P2R-22)
# Sequence (P49190 25-550): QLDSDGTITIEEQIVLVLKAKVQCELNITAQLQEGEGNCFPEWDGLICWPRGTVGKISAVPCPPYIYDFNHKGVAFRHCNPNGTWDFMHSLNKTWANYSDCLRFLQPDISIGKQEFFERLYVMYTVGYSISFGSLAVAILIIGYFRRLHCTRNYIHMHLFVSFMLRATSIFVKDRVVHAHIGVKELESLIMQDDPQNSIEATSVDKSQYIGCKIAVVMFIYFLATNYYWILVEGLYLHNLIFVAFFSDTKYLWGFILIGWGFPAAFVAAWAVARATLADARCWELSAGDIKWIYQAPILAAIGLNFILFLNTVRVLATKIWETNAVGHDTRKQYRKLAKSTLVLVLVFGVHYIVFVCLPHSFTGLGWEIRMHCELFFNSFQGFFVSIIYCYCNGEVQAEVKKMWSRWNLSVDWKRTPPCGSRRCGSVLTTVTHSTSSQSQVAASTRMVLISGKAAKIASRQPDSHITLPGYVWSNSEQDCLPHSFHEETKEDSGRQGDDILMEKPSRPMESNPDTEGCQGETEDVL
# assay name: cAMP stimulation in LLC-P2R-22 cells (LLC-PK1 stably transfected with hPTH-2 receptor)
# Assay type: cell-based
# reported conditions: LLC-P2R-22 cells (hPTH-2 Receptor)
No end group written: not given here.
value type: Emax (picomole/well)
Answer with a number only, understood to be in picomole/well.

| substance | test target | Emax (picomole/well) |
| --- | --- | --- |
| AVAEIQLMHARAKHLNSMERVEWLRKKLQDVHNY-NH2 [Peptide #7] | hPTH-2 Receptor (Homo sapiens) | 677 |
| AVAEIQLMHARAK-NH2 [compound 4] | hPTH-2 Receptor (Homo sapiens) | 501 |
| AVAEIQLMHARAKH-NH2 [Peptide #1] | hPTH-2 Receptor (Homo sapiens) | 292 |

Now take the following substance into account.
Lab note: measured Emax of AVAEIQLMHARA-NH2 [compound 5] was 501
